Origin of values: ChEMBL document CHEMBL3727358

Catalogue of IC50 readings, one per entry.
- Measurement target: 6-phosphofructo-2-kinase/fructose-2,6-bisphosphatase 3 (Homo sapiens)
- Sequence (Q16875 whole entry): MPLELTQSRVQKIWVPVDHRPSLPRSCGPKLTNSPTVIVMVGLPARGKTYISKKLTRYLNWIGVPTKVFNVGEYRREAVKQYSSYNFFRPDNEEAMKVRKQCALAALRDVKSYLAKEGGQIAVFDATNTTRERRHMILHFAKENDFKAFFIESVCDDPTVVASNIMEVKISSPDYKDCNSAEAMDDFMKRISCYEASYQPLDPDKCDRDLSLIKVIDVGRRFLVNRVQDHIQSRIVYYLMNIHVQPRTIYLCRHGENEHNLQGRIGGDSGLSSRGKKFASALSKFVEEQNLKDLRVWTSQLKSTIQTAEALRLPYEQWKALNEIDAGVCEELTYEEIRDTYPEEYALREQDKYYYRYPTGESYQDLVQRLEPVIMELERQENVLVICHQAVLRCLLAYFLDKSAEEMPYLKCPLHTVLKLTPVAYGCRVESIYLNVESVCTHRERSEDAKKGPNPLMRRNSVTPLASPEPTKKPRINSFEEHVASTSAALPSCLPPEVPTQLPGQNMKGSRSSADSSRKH
- Experiment: Inhibition of iPFK2 (unknown origin) assessed as reduction in enzyme-mediated fructose-6-phosphate phosphorylation by measuring ATP consumption incubated for 3 hrs by luciferase-luciferin-coupled chemiluminescence assay
Result type: IC50

# Molecule, Observed measurement
records = [
    ("Cc1cc(COc2ccc(F)c(C(C)Nc3cc(-c4ccc5ncsc5c4)nc(C)n3)c2)n(C)n1 (stereo not given)", "> 1 µM"),
    ("COc1ccc(F)c(CNc2cc(-c3ccc4ncsc4c3)nc(C)n2)c1Cl", "> 1 µM"),
    ("CCOC(=O)Cc1coc2ccc(-c3cc(N[C@@H]4CCCc5ccccc54)nc(C)n3)cc12", "> 1 µM"),
    ("Cc1nc(NC(C)c2cccc(OCCCC(=O)O)c2)cc(-c2ccc3ncsc3c2)n1 (stereo not given)", "0.5 µM"),
    ("Cc1nc(NC(C)c2cccc(N)c2)cc(-c2ccc3ncsc3c2)n1 (stereo not given)", "> 1 µM"),
    ("CNC(=O)c1cc(-c2cc(N[C@@H]3CCCc4ccccc43)nc(C)n2)ccc1Cl", "> 1 µM"),
    ("CC(C)CCC(C)NC1C=C(c2ccc3ncsc3c2)N=CN1C (stereo not given)", "> 1 µM"),
    ("COc1cccc([C@H](C)Nc2cc(-c3cc4ccccc4o3)nc(C)n2)c1", "> 1 µM"),
    ("COc1cccc([C@H](C)Nc2cc(-c3ccc4ncn(C)c4c3)nc(C)n2)c1", "> 1 µM"),
    ("CNc1ccc(-c2cc(N[C@@H]3CCCc4ccccc43)nc(C)n2)cc1", "0.5 µM"),
]
